// data source = patent US20240116985A1

Overview of reported CHI Log D across a group of compounds:
# assay-protocol: CHI Log D procedure
# Format: physicochemical
# cond: pH 7.4
Write no unit; give the number alone.

Guide cases for CHI Log D, answers given:
# compound, number
data = [
    ("CC(=O)N1CCC[C@]12CC=CCCCC1(CCCC=CCCCCCC[C@@](C)(C(=O)N[C@@H](Cc3ccccc3)C(=O)N[C@@H](Cc3c[nH]c4ccccc34)C(=O)N[C@@H](CCC(N)=O)C(N)=O)NC(=O)[C@H](C(C)C)NC(=O)[C@H](Cc3ccccc3)NC(=O)[C@H](C)NC(=O)[C@H](C)NC(=O)[C@H](CC(=O)O)NC(=O)[C@H](C)NC1=O)NC(=O)[C@H](C)NC(=O)[C@H](CC(=O)O)NC2=O (stereo partly drawn) [I-350]", 2.887),
    ("CC(=O)N1CCC[C@]12CC=CCCCC1(CCCC=CCCCOC(=O)N3CC[C@@](C(=O)N[C@@H](Cc4ccsc4)C(=O)N[C@@H](Cc4csc5ccccc45)C(=O)N[C@@H](CO)C(N)=O)(C3)NC(=O)[C@H]([C@@H](C)O)NC(=O)[C@H](Cc3ccccc3)NC(=O)[C@H](C)NC(=O)[C@H](C)NC(=O)[C@H](CN(CC(=O)O)CC(F)(F)F)NC(=O)[C@H](CC(=O)O)NC1=O)NC(=O)[C@H](CC(C)(C)C)NC(=O)[C@H](CC(=O)O)NC2=O (stereo partly drawn) [I-957]", "−0.043"),
]

Here is the next item to consider.
q: Indicate the recorded CHI Log D value for this compound: CC(=O)N1CCC[C@]12CC=CCCCC1(CCCC=CCCCCOC(=O)N3CC[C@@](C(=O)N[C@@H](Cc4ccsc4)C(=O)N[C@@H](Cc4csc5ccccc45)C(=O)N[C@@H](CCC(N)=O)C(N)=O)(C3)NC(=O)[C@H](CC(N)=O)NC(=O)[C@H](Cc3ccccc3)NC(=O)[C@H](C)NC(=O)[C@H](C)NC(=O)[C@H](CC(=O)O)NC(=O)[C@H](CC(=O)O)NC1=O)NC(=O)[C@H](CC(C)(C)C)NC(=O)[C@H](CC(=O)O)NC2=O (stereo partly drawn) [I-768]
a: 2.043

----------
# assay-protocol: Solubility in PBS
# Assay type: physicochemical
Overview of reported Solubility across a group of compounds:
Your answer is read as µM, so omit the unit and give the number.

# compound, measurement-type, units-text, number
data = [
    ("CC[C@H](C)[C@@H]1NC(=O)[C@H](CC(=O)O)NC(=O)[C@]2(CC=CCCCC3(CCCC=CCCCCCC[C@@](C)(C(=O)N[C@@H](Cc4ccccc4)C(=O)N[C@@H](Cc4csc5ccccc45)C(=O)N[C@@H](CCC(N)=O)C(N)=O)NC(=O)[C@H](CCC(N)=O)NC(=O)[C@H](Cc4ccccc4)NC(=O)[C@H](CO)NC(=O)[C@H](C)NC(=O)[C@H](CCC(=O)O)NC(=O)[C@H](CC(=O)O)NC3=O)NC1=O)CCCN2C(C)=O (some centres unmarked) [I-662]", "Solubility", "µM", 46),
    ("CC(=O)N1CCC[C@]12CC=CCCCC1(CCCC=CCCCOC(=O)N3CC[C@@](C(=O)N[C@@H](Cc4ccccc4)C(=O)N[C@@H](Cc4csc5ccccc45)C(=O)N[C@@H](CCC(N)=O)C(N)=O)(C3)NC(=O)[C@H](CC(C)C)NC(=O)[C@H](Cc3ccccc3)NC(=O)[C@H](C)NC(=O)[C@H](C)NC(=O)[C@H]([C@@H](C)O)NC(=O)[C@H](CC(=O)O)NC1=O)NC(=O)[C@H](C)NC(=O)[C@H](CC(N)=O)NC2=O (single isomer, unassigned) [I-1286]", "Solubility", "µM", 10),
    ("CC[C@@H](C)[C@@H]1NC(=O)[C@H](CC(=O)O)NC(=O)[C@]2(CC=CCCCC3(CCCC=CCCCCCC[C@@](C)(C(=O)N[C@@H](Cc4ccccc4)C(=O)N[C@@H](Cc4csc5ccccc45)C(=O)N[C@@H](CCC(N)=O)C(N)=O)NC(=O)[C@H](CC(N)=O)NC(=O)[C@H](Cc4ccccc4)NC(=O)[C@H](C)NC(=O)[C@H](C)NC(=O)[C@H](CCC(=O)O)NC(=O)[C@H](CC(=O)O)NC3=O)NC1=O)CCCN2C(C)=O (some centres unmarked) [I-476]", "Solubility", "µM", 49),
    ("CC(=O)N1CCC[C@]12CC=CCCCC1(CCCC=CCCCOC(=O)N3CC[C@@](C(=O)N[C@@H](Cc4ccsc4)C(=O)N[C@@H](Cc4csc5ccccc45)C(=O)N[C@@H](CCC(N)=O)C(N)=O)(C3)NC(=O)[C@H](CC(N)=O)NC(=O)[C@H](Cc3ccccc3)NC(=O)[C@H](C)NC(=O)[C@H](C)NC(=O)[C@H](CCC(=O)O)NC(=O)[C@H](CC(=O)O)NC1=O)NC(=O)[C@H](CC(C)(C)C)NC(=O)[C@H](CC(=O)O)NC2=O (some centres unmarked) [I-690]", "Solubility", "µM", 44),
]

Here is the next item to consider.
q: Indicate the recorded Solubility value for this compound: CCN(CC(=O)O)C[C@@H]1NC(=O)[C@H](CC(=O)O)NC(=O)C2(CCCC=CCCCCCC[C@@](C)(C(=O)N[C@@H](Cc3ccccc3)C(=O)N[C@@H](Cc3c[nH]c4ccccc34)C(=O)N[C@@H](CCC(N)=O)C(N)=O)NC(=O)[C@H](C(C)C)NC(=O)[C@H](Cc3ccccc3)NC(=O)[C@H](C)NC(=O)[C@H](C)NC1=O)CCCC=CC[C@]1(CCCN1C(C)=O)C(=O)N[C@@H](CC(=O)O)C(=O)N[C@@H](C)C(=O)N2 (some centres unmarked) [I-172]
a: 50
